target: human Nav1.7 channels stably expressed in HEK 293 cells (Homo sapiens); construct: expressed in transfected cells; test: IonWorks Quattro automated patch-clamp, sodium current, inactivated state block; format: cell-based; settings: read-out: potency for the Nav 1.7 sodium ion channel (as measured by IonWorks)
metricName: pIC50
Numbers only, as −log10 of the molar value.

Worked examples, 3 compounds total:
O=c1oc2cc(S(=O)(=O)Nc3ncns3)ccc2n1Cc1cccc(C2=CCNCCC2)c1
6.08
O=c1oc2cc(S(=O)(=O)Nc3ncns3)ccc2n1Cc1cccc(C2=CC3CCC(C2)N3)c1 (stereo not shown)
5.88
C[C@@H](c1cccc2c1CNCC2)n1c(=O)oc2cc(S(=O)(=O)Nc3ncns3)c(F)cc21
6.24

Provide pIC50 values for the following items, in order.
1. CC(c1ccccc1)n1c(=O)oc2cc(S(=O)(=O)Nc3ncns3)ccc21 (stereo not shown)
2. O=c1oc2cc(S(=O)(=O)Nc3ncns3)ccc2n1C(c1ccccc1)C1CC1 (stereo not shown)
3. O=c1oc2cc(S(=O)(=O)Nc3ncns3)ccc2n1Cc1ccccc1

Result:
[6.02, 5.98, 6.10]

----------
For each entry below, report its ratio of Nav 1.5:Nav 1.7 potency, determined by IonWorks measurement value.
target: human Nav1.5 channels stably expressed in HEK 293 cells (Homo sapiens, UniProt Q14524); construct: expressed in transfected cells; assay: IonWorks Quattro automated patch-clamp, sodium current, inactivated state block; format: cell-based; settings: selectivity over Nav1.5
Sequence (Q14524 whole entry): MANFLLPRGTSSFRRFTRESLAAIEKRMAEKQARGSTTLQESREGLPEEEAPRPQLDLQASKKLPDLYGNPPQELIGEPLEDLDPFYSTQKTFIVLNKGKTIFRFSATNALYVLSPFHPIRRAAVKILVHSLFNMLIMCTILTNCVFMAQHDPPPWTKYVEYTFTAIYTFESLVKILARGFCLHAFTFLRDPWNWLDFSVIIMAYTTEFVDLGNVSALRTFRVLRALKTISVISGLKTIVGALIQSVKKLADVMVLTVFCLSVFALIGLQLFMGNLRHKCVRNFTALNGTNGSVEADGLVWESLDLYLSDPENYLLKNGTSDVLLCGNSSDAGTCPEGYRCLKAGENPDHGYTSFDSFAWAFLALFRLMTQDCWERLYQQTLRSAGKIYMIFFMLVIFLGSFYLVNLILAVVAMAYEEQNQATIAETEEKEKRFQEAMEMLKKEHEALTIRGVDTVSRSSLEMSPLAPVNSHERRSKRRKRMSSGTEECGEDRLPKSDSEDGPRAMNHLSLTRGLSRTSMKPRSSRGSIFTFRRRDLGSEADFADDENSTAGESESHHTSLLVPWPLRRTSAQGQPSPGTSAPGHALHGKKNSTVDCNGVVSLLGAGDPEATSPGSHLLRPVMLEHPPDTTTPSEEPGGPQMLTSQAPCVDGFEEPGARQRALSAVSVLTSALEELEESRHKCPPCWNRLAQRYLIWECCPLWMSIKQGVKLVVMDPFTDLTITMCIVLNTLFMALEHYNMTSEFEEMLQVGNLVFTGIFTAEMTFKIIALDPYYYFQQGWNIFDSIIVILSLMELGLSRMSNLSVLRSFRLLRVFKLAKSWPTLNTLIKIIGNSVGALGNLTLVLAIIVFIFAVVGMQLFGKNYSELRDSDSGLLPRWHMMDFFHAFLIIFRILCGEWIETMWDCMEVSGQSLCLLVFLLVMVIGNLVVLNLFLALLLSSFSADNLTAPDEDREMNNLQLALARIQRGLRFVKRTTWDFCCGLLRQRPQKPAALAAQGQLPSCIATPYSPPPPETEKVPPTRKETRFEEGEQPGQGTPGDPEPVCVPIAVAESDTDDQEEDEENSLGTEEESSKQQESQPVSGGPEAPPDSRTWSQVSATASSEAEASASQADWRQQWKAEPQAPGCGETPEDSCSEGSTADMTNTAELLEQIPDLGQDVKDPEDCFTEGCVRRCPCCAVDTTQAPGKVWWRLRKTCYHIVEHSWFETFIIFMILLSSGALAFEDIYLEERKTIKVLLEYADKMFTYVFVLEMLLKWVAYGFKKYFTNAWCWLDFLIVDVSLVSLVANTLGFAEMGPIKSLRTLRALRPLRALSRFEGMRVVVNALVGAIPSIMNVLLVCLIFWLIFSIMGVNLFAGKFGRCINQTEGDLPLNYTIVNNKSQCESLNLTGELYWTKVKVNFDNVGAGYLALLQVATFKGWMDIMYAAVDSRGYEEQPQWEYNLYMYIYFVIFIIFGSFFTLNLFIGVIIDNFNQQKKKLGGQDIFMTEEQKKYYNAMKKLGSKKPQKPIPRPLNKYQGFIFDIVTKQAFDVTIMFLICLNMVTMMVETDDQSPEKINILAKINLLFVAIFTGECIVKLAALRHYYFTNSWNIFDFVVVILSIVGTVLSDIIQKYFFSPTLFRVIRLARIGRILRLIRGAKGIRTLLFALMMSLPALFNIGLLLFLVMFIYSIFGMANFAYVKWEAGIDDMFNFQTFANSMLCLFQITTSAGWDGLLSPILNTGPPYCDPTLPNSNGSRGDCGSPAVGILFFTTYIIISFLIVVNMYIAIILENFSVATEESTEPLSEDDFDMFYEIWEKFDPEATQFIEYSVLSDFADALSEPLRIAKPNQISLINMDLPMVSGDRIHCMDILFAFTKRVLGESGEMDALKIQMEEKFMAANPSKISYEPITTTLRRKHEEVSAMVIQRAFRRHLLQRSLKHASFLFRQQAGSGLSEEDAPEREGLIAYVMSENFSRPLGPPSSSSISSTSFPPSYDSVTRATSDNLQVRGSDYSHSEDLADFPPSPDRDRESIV

Worked examples, 5 molecules total:
C[C@H](c1ccccc1)n1c(=O)oc2cc(S(=O)(=O)Nc3ncns3)c(F)cc21
418
O=c1oc2cc(S(=O)(=O)Nc3ncns3)ccc2n1Cc1ccccc1-c1cccc2c1CCNC2
> 103
O=c1oc2cc(S(=O)(=O)Nc3ncns3)ccc2n1Cc1cccc(Cl)c1
59
NC/C=C/c1ccccc1Cn1c(=O)oc2cc(S(=O)(=O)Nc3ncns3)c(F)cc21
6084
C[C@@H](c1cccc2c1CNCC2)n1c(=O)oc2cc(S(=O)(=O)Nc3ncns3)c(F)cc21
57

Provide ratio of Nav 1.5:Nav 1.7 potency, determined by IonWorks measurement values for the following items, in order.
1. NCc1ccc(Cl)cc1Cn1c(=O)oc2cc(S(=O)(=O)Nc3ncns3)ccc21
2. NC/C=C/c1cc(Cl)ccc1Cn1c(=O)oc2cc(S(=O)(=O)Nc3ncns3)ccc21
3. C[C@@H](c1cccc2c1CNCC2)n1c(=O)oc2cc(S(=O)(=O)Nc3ncns3)ccc21
4. CC(c1ccccc1)n1c(=O)oc2cc(S(=O)(=O)Nc3ncns3)ccc21 (stereo not shown)

Result:
> 55
> 56
> 451
> 35

Provide ratio of Nav 1.5:Nav 1.7 potency, determined by IonWorks measurement values for the following items, in order.
1. O=c1oc2cc(S(=O)(=O)Nc3ncns3)ccc2n1Cc1ccccc1C1=CC2CCC(C1)N2 (stereo not shown)
2. C[C@@H](c1ccccc1)n1c(=O)oc2cc(S(=O)(=O)Nc3ncns3)c(F)cc21
3. O=c1oc2cc(S(=O)(=O)Nc3ncns3)ccc2n1Cc1cccc2ccncc12

Result:
["> 113", 78, 65]

----------
biological target: human Nav1.7 channels stably expressed in HEK 293 cells (Homo sapiens, UniProt Q15858); construct: expressed in transfected cells; experiment: PatchXpress 7000 automated patch-clamp, sodium current; assay type: cell-based; settings: 22° C., read-out: potency for the Nav 1.7 sodium ion channel (as measured by PatchXpress)
Sequence (Q15858 whole entry): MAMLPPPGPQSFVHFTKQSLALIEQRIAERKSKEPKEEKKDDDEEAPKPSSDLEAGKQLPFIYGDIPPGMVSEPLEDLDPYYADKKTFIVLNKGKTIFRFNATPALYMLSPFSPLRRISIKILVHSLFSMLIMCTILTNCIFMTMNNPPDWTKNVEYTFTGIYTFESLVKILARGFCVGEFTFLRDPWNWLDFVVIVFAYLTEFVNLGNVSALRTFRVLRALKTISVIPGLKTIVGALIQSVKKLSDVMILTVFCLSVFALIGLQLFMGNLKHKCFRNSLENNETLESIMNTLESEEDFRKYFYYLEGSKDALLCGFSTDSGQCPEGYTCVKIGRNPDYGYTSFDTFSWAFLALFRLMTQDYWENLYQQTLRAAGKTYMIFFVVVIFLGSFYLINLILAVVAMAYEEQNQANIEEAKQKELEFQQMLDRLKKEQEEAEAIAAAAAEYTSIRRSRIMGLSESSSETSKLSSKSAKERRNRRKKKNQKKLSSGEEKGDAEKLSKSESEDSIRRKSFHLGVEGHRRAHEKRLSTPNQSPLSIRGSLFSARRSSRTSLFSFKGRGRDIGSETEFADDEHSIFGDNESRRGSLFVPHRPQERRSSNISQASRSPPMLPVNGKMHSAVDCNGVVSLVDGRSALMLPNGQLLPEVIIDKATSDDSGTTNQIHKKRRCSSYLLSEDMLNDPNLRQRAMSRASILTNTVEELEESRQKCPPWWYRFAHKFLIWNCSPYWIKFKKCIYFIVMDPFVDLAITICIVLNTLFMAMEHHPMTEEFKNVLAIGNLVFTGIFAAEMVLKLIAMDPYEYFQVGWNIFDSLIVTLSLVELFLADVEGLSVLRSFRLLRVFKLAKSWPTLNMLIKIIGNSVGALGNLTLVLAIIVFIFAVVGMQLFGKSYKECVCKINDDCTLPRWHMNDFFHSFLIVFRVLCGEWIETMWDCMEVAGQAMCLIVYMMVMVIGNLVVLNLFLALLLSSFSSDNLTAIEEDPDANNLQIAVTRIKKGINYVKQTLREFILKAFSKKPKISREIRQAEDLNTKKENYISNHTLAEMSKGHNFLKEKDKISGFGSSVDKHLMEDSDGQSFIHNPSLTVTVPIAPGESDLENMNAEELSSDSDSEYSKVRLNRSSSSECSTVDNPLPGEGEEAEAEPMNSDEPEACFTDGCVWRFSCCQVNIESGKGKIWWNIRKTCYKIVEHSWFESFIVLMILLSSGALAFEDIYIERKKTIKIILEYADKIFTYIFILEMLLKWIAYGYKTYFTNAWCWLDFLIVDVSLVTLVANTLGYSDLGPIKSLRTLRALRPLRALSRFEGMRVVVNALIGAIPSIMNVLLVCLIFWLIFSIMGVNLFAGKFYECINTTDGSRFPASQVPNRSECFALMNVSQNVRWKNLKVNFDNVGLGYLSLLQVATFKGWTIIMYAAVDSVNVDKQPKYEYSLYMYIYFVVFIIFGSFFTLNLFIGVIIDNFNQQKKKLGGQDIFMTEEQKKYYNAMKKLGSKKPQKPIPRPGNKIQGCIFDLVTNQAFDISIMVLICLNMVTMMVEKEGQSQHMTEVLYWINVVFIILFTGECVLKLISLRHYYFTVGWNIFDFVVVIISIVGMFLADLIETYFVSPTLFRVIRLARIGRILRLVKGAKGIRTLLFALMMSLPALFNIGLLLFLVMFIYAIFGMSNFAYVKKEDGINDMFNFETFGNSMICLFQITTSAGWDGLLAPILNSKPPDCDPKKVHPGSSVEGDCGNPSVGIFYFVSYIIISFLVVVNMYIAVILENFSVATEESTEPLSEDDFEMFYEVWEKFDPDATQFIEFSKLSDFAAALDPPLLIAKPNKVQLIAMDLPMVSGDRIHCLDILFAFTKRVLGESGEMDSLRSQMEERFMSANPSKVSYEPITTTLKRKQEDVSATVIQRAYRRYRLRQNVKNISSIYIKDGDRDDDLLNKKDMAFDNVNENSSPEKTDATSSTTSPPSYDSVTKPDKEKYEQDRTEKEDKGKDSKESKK
For each entry below, report its log10(IC50) value.
Short version: log10 scale, IC50, nM.

Worked examples, 5 molecules total:
CC(c1cccc2c1CNCC2)n1c(=O)oc2cc(S(=O)(=O)Nc3ncns3)c(Cl)cc21 (racemic)
2.75
C[C@H](c1ccccc1C1=CCNCCC1)n1c(=O)oc2cc(S(=O)(=O)Nc3ncns3)c(F)cc21
1.26
C[C@H](c1ccccc1C#CCN)n1c(=O)oc2cc(S(=O)(=O)Nc3nccs3)c(F)cc21
1.46
CS(=O)(=O)N1CCc2cccc(Cn3c(=O)oc4cc(S(=O)(=O)Nc5ncns5)ccc43)c2C1
2.40
O=c1oc2cc(S(=O)(=O)Nc3ncns3)c(F)cc2n1[C@H](CO)c1ccccc1
2.63

Provide log10(IC50) values for the following items, in order.
1. NC1Cc2cccc(Cn3c(=O)oc4cc(S(=O)(=O)Nc5ncns5)c(F)cc43)c2C1 (racemic)
2. C[C@H](c1ccccc1C#CC1(N)CC1)n1c(=O)oc2cc(S(=O)(=O)Nc3ncns3)c(F)cc21
3. C[C@H](c1cccc2c1CNCC2)n1c(=O)oc2cc(S(=O)(=O)Nc3ncns3)c(Br)cc21
4. C[C@H](c1ccccc1C#CC1CCNC1)n1c(=O)oc2cc(S(=O)(=O)Nc3ncns3)c(F)cc21 (stereo partly drawn)

Result:
1.70
1.98
1.20
1.53

----------
target: human Nav1.5 channels stably expressed in HEK 293 cells (Homo sapiens, UniProt Q14524); construct: expressed in transfected cells; assay: IonWorks Quattro automated patch-clamp, sodium current, inactivated state block; format: cell-based; conditions: selectivity over Nav1.5
For each entry below, report its ratio of Nav 1.5:Nav 1.7 potency, determined by IonWorks measurement value.
Answers are plain numbers.

Worked examples, 4 molecules total:
O=c1oc2cc(S(=O)(=O)Nc3ncns3)ccc2n1Cc1ccccc1Cl [Compound 1-12]
67
CC(c1ccccc1C(F)(F)F)n1c(=O)oc2cc(S(=O)(=O)Nc3ncns3)ccc21 (centres unmarked) [Compound 4-9]
22
CC(CCc1ccccc1)n1c(=O)oc2cc(S(=O)(=O)Nc3ncns3)ccc21 (centres unmarked) [Compound 4-11]
9
O=c1oc2cc(S(=O)(=O)Nc3ncns3)c(F)cc2n1Cc1cccc2c1CNCC2 [Compound 11-5]
182

Continue with the next molecule.
Problem: Data request, read-out ratio of Nav 1.5:Nav 1.7 potency, determined by IonWorks measurement, for CS(=O)(=O)N1CCc2cccc(Cn3c(=O)oc4cc(S(=O)(=O)Nc5ncns5)ccc43)c2C1 [Compound 8-4]
Result: 20

----------
For each entry below, report its pIC50 value.
molecular target: human Nav1.7 channels stably expressed in HEK 293 cells (Homo sapiens, UniProt Q15858); construct: expressed in transfected cells; assay: PatchXpress 7000 automated patch-clamp, sodium current; assay type: cell-based; settings: 22° C., read-out: potency for the Nav 1.7 sodium ion channel (as measured by PatchXpress)
Give bare numbers, as −log10 of the molar value.

Provide pIC50 values for the following items, in order.
1. CC(CCc1ccccc1)n1c(=O)oc2cc(S(=O)(=O)Nc3ncns3)ccc21 (stereo not shown) [Compound 4-11]
2. C[C@H](c1ccccc1C1=CCN(S(C)(=O)=O)CC1)n1c(=O)oc2cc(S(=O)(=O)Nc3ncns3)c(F)cc21 [Compound 36-3]
3. C[C@H](c1ccccc1C1(F)CNC1)n1c(=O)oc2cc(S(=O)(=O)Nc3ncns3)c(F)cc21 [Compound 32-6]
4. C[C@H](c1ccccc1C#CC(C)(C)N)n1c(=O)oc2cc(S(=O)(=O)Nc3ncns3)c(F)cc21 [Compound 17-10]

Result:
1: 5.75; 2: 6.59; 3: 7.74; 4: 7.25

----------
For each entry below, report its ratio of Nav 1.5:Nav 1.7 potency, determined by IonWorks measurement value.
Target: human Nav1.5 channels stably expressed in HEK 293 cells (Homo sapiens)
Construct: expressed in transfected cells
Test: IonWorks Quattro automated patch-clamp, sodium current, inactivated state block
Assay type: cell-based
Settings: selectivity over Nav1.5
Method: Compounds were tested on human Nav1.7 and Nav1.5 channels stably expressed in HEK 293 cells. […] Cells were sealed on a planar substrate using the Population Patch Plate (PPC) technology. Electrical access was obtained using both nystatin and amphotericin. […] For all electrophysiology experiments, offline analysis was used to correct for current rundown and to determine percent inhibition as a function of drug concentration. IC50 values were determined by fitting to the Hill equation.

O=c1oc2cc(S(=O)(=O)Nc3ncns3)ccc2n1Cc1ccccc1C1=CCNCCC1
> 133

Provide ratio of Nav 1.5:Nav 1.7 potency, determined by IonWorks measurement values for the following items, in order.
1. O=c1oc2cc(S(=O)(=O)Nc3ncns3)ccc2n1Cc1ccccc1-c1ccccc1N1CCNCC1
2. C[C@H](c1ccccc1)n1c(=O)oc2cc(S(=O)(=O)Nc3ncns3)ccc21
3. C[C@@H](c1ccccc1)n1c(=O)oc2cc(S(=O)(=O)Nc3ncns3)ccc21

Result:
> 59
28
> 22

Provide ratio of Nav 1.5:Nav 1.7 potency, determined by IonWorks measurement values for the following items, in order.
1. O=c1oc2cc(S(=O)(=O)Nc3ncns3)ccc2n1Cc1cccc(C2=CCNCC2)c1
2. C[C@H](c1cccc2c1CNCC2)n1c(=O)oc2cc(S(=O)(=O)Nc3ncns3)c(F)cc21

Result:
1. > 43
2. 2604

Provide ratio of Nav 1.5:Nav 1.7 potency, determined by IonWorks measurement values for the following items, in order.
1. NCc1ccccc1Cn1c(=O)oc2cc(S(=O)(=O)Nc3ncns3)ccc21
2. O=c1oc2cc(S(=O)(=O)Nc3ncns3)ccc2n1Cc1cccc2c1CN(CC1CC1)CC2

Result:
> 125
54
